System: PPARg:RXRa IVT, anti-PPARg (NR concentration 270 nM, RXRa partner concentration 90 nM)
Assay: PBM binding z-score (relative to random genomic background probes); higher = stronger binding; sequences stand for … in GC…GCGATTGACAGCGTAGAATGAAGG
Listed sequences paired with reported PBM binding z-score
Enter a number only.

For orientation, consider the following solved cases.
| Monomer sequence | Experimental result |
| --- | --- |
| GGATCGAGGGCAAAGTTGATAGCATCTGTCGACG | 4.54 |
| TCTAGCAGGCCAGAGGGGCACTCAAGAGGTACGG | -0.0435 |
| TAGCCTAGGCCATTCAGGGGCCAGTATAGAAAGC | 0.1 |
| AGAATGAGGTTATTAAGATCAGGCAATTGCGGTC | 2.56 |
| TCTAGTTGGACACGGAGGTCACACACGACGGGTA | 2.33 |
| ACTATTAGTAGAGACGAGGGCAACCGATAGGTTG | 0.751 |
| TCTAGTTGGTCACGGAGATCACACACGACGGGTA | 2.3 |
| GCATATAGGTTATACAAGGTGAAAGTCCGATTGT | 4.04 |

Entry under review: `GCAGATAGGTAATACAAGGTGAAAGTCCGATTGT` . Reported PBM binding z-score?
0.869

Entry under review: `CCTTACGGGTCACGAGGTTAAAGCACGACGAGCG` . Reported PBM binding z-score?
5.39

Entry under review: `ACTAGCAGGCCAAATTTGGGTCACTCAAACAAAG` . Reported PBM binding z-score?
4.17

Entry under review: `CCTCGGAGAACAACAGGAGGTCAGAGCTGCCAGA` . Reported PBM binding z-score?
-0.0712
